Test system: UO-31 renal
Assay explanation: NCI tumour cell line growth inhibition, 48 h
Observation type: TGI

Worked examples, 10 molecules total:
Molecule	System under test	TGI
COc1cc2c(c(OC)c1OC)C(=O)c1c(O)cc(C)c(OC)c1C2=O	UO-31 renal	> 100 µM
Cc1cc(N(CCC#N)CCC#N)ccc1/C=C(\NC(=O)/C=C/c1ccccc1)C(=O)Nc1ccccc1Cl	UO-31 renal	> 100 µM
CCCC(=O)Nc1cc(C(=O)N2C[C@H]3C[C@@]34C2=CC(=O)c2[nH]cc(C)c24)n(COC)c1	UO-31 renal	3.64 µM
CCOC(=O)[C@@]12C[C@](/C=C/OC)(O[Si](C)(C)C)[C@@]13c1cc(OC)c(OC)cc1CCN3C(=O)C2=O	UO-31 renal	> 100 µM
NC(=S)NNCC(=O)CC(O)(C(F)(F)F)C(F)(F)Cl (centres undefined)	UO-31 renal	> 100 µM
C=CCC(N[C@@H](CO)c1ccccc1)c1ccc2ccccc2n1 (some centres undefined)	UO-31 renal	> 100 µM
CC(=O)Oc1ccc2cc(Oc3cc(Cl)c(Cl)cc3Cl)c(=O)oc2c1	UO-31 renal	25.9 µM
O=c1cc(NNc2cccc3ccccc23)[nH]c(=O)[nH]1	UO-31 renal	29.8 µM
CCOc1ccc(C2=NN(CC)C(=O)C(C3C(=O)N(c4ccccc4)N=C3C)C2)cc1 (centres undefined)	UO-31 renal	> 100 µM
Cc1ccc(S(=O)(=O)N/N=C2\C=CC3(CC2)C(=O)N(I)c2ccccc23)cc1 (centres undefined)	UO-31 renal	> 100 µM

// for each molecule in input: emit TGI
1. CC(C)(C)N/N=C(/Cc1nc2c3c(ccc2[nH]c1=O)C(=O)c1ccccc1C3=O)C(=O)NC1=C(Cl)C(=O)c2ccccc2C1=O
2. Nc1nc(Cl)c(CO)c(NCC2(CO)CCC2)n1

OUT:
1: > 100 µM; 2: > 100 µM

Please look at the items below and tell me TGI for each one, in order.
1. COc1cc2c(oc(=O)c3c4occc4cc(OC)c23)c2cccc(O)c12
2. Nc1nc(SCc2ccccc2CCl)c2[nH]cnc2n1
3. CC1NOC(=O)C1N=Nc1cccc(Cl)c1 (centres undefined)
4. O/N=C\c1c2c(cc3c1CCC3)CCC2
5. CC(C)(O)C1COC2=C1C(=O)c1ccccc1C2=O (centres undefined)
6. Fc1ccccc1CN1COc2c(cc(Cl)c3cccnc23)C1

OUT:
["> 100 µM", "71.9 µM", "> 100 µM", "> 100 µM", "> 100 µM", "17.7 µM"]

For every record below, what is its TGI?
1. CCOc1ccc2nc(NC(=O)C(=O)C3C(=O)C(CC4C(=O)c5ccccc5C4=O)C(=O)CC3(C)C)sc2c1 (centres undefined)
2. Cc1cc(NCCCCCCCNc2cc(C)nc3cc(N)ccc23)c2ccc(N)cc2n1

OUT:
1: > 100 µM; 2: > 100 µM

From: PubChem BioAssay (NCI)
